- Test system: biotinyl-Met-oxazolone
- Method Summary: self-aminoacylation, catalytic enhancement (BMO) (fold over background); higher = more active; k-Seq, kA / k0A0; sequences stand for … in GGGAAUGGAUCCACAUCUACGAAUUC…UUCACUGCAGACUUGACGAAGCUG
Fewer inactive variants are shown than the library holds.
Property Label: self-aminoacylation
Answers are plain numbers.

Sequence | self-aminoacylation
AUUCACCAAGGUCAUGGGGUG [Fam2.2 aminoacylation ribozyme variant] | 9.1
AUUCACCUAGGUCAUCAGGGG [Fam2.2 aminoacylation ribozyme variant] | 0.955
CUACUUCAAACAAUAGGUCUG [Fam1A.1 aminoacylation ribozyme variant] | 0.696

I'm hoping you can list self-aminoacylation for every sequence here, please.
1. AUUUACCUAGGUCCUCGGGUG [Fam2.2 aminoacylation ribozyme variant]
2. AUUCAUCUAGGACAUCGGGUG [Fam2.2 aminoacylation ribozyme variant]
3. GUUAGCCUGGUCAUCGAGUGA [Fam2.1 aminoacylation ribozyme variant]
4. AAAUUUGCUAAUAGUCGCACG [Fam3.1 aminoacylation ribozyme variant]
5. AUUCUCCUUGGUCAUCGGGUG [Fam2.2 aminoacylation ribozyme variant]

Reply:
1. 4.15
2. 3.39
3. 6.67
4. 1.38
5. 9.71

Ask: Fill in: self-aminoacylation of AUUACCCUGGCCAUCGCGUGA [Fam2.1 aminoacylation ribozyme variant] is ___
Reply: 6.31

----------
Would you kindly list self-aminoacylation for each of these sequences?
- Tested on: biotinyl-Ile-oxazolone
- Method Summary: self-aminoacylation, catalytic enhancement (BIO) (fold over background); higher = more active; k-Seq, kA / k0A0; sequences stand for … in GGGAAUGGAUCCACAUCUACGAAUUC…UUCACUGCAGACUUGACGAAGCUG
This sample holds only a part of the variants without activity.
Give bare numbers.

Illustrative cases are given below, each with its answer.
Sequence | self-aminoacylation
AUCCACCUAGGUCAUCGGGUA [Fam2.2 aminoacylation ribozyme variant] | 20.2
AUUCACUUAGGUCAUCGGUUG [Fam2.2 aminoacylation ribozyme variant] | 0.87

I'm hoping you can list self-aminoacylation for every sequence here, please.
1. AUUCACCUAGUGCAUCGGGUG [Fam2.2 aminoacylation ribozyme variant]
2. AUUACCAUGGUCAUUGAGUGA [Fam2.1 aminoacylation ribozyme variant]
3. AAUUUCGCUAAUAGUCGCAAG [Fam3.1 aminoacylation ribozyme variant]

Reply:
[1.35, 5.76, 2.19]

I'm hoping you can list self-aminoacylation for every sequence here, please.
1. AUUCACUUAGGUCAUCGGGUC [Fam2.2 aminoacylation ribozyme variant]
2. AAGUUUGCUAAUAGUGGCAAU [Fam3.1 aminoacylation ribozyme variant]
3. AUCACCCUGGUCAUCGAGUGU [Fam2.1 aminoacylation ribozyme variant]
4. AUUACCCUGUUCACCGAGUGA [Fam2.1 aminoacylation ribozyme variant]
5. CUACUGCUAACAAUCGGUCUG [Fam1A.1 aminoacylation ribozyme variant]
6. AAGUAUGCUAAUAGUCGCAAU [Fam3.1 aminoacylation ribozyme variant]

Reply:
1.04
1.08
7.23
4.79
0.538
1.9

----------
- Test system: biotinyl-Trp-oxazolone
- Method Summary: self-aminoacylation, catalytic enhancement (BWO) (fold over background); higher = more active; k-Seq, kA / k0A0; sequences stand for … in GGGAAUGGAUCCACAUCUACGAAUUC…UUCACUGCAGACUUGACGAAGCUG
Fewer inactive variants are shown than the library holds.
Rule: self-aminoacylation under 2 gives 0 (no), otherwise 1 (yes).

Sequence | Classification
CUACUUCGAACAACCGGUCUG [Fam1A.1 aminoacylation ribozyme variant] | 0 (no)

Ask: Does self-aminoacylation meet or surpass 2 for AUCCACCUAGGUAAUCGGGUG [Fam2.2 aminoacylation ribozyme variant] ?
Reply: 1 (yes)

Ask: Does self-aminoacylation meet or surpass 2 for AGUUACCUAGGUCAUCGGGUG [Fam2.2 aminoacylation ribozyme variant] ?
Reply: 1 (yes)

Ask: Does self-aminoacylation meet or surpass 2 for ACUCACCUCGGUCAUCGGGUG [Fam2.2 aminoacylation ribozyme variant] ?
Reply: 1 (yes)

Ask: Does self-aminoacylation meet or surpass 2 for CUACUACAAACAAUCGGACUG [Fam1A.1 aminoacylation ribozyme variant] ?
Reply: 0 (no)

Ask: Does self-aminoacylation meet or surpass 2 for CCACACUUCAAGCACUCGCUC [Fam1B.1 aminoacylation ribozyme variant] ?
Reply: 0 (no)

Ask: Does self-aminoacylation meet or surpass 2 for AGUACCCUGGUCAUUGAGUGA [Fam2.1 aminoacylation ribozyme variant] ?
Reply: 1 (yes)

Ask: Does self-aminoacylation meet or surpass 2 for AAGGUUGCUAAUAGUCUCAAG [Fam3.1 aminoacylation ribozyme variant] ?
Reply: 0 (no)

Ask: Does self-aminoacylation meet or surpass 2 for AAGUUUGCUAUUAGUCGCGAG [Fam3.1 aminoacylation ribozyme variant] ?
Reply: 1 (yes)
